- Tested on: COV318 cells
- EXPERIMENTAL_PROTOCOL: Inhibition of cell proliferation (CyQUANT Direct), COV318
- Assay type: cell-based, human
- CONDITION_INFO: Homo sapiens, COV318, 72-hour
pIC50: −log10 of the molar value.
EXPERIMENTAL_READOUT: pIC50

Known pIC50 results, listed for orientation:
{"SMILES_DATA": "Cc1nocc1-c1ccc2c(-c3nc(N[C@@H]4CNC[C@H](O)C4)ncc3C(F)(F)F)c[nH]c2n1", "pIC50": "< 6.00"}
{"SMILES_DATA": "Cc1noc(-c2ccc3c(-c4nc(N[C@H]5CCCNC5)ncc4C(F)(F)F)c[nH]c3n2)n1", "pIC50": "< 6.00"}
{"SMILES_DATA": "Cc1noc(C)c1-c1ccc2c(-c3nc(N[C@@H]4CC[C@@H](C)NC4)ncc3C(F)(F)F)n[nH]c2n1", "pIC50": "> 7.00"}
{"SMILES_DATA": "Cc1noc(C)c1-c1ccc2c(-c3nc(N[C@@H]4CNCC(C)(C)C4)ncc3C(F)(F)F)c[nH]c2c1", "pIC50": "6.30 to 7.00"}
{"SMILES_DATA": "Cc1nsc(-c2ccc3c(-c4nc(N[C@H]5CCCNC5)ncc4C(F)(F)F)c[nH]c3c2)n1", "pIC50": "6.30 to 7.00"}
{"SMILES_DATA": "Cn1nnnc1-c1ccc2c(-c3nc(N[C@H]4CCCNC4)ncc3C(F)(F)F)c[nH]c2c1", "pIC50": "< 6.00"}

Request: // query pIC50 value for entry `Cc1nc(-c2ccc3c(-c4nc(N[C@@H]5CC[C@@H](C)NC5)ncc4C(F)(F)F)c[nH]c3n2)no1`
Response: < 6.00
